Data origin, for the record: patent US11667645B2

Listed here are molecules together with their documented pIC50.
SYSTEM_NAME: Granzyme B (human lymphocytes) (Homo sapiens (Human))
Sequence (P10144 21-247): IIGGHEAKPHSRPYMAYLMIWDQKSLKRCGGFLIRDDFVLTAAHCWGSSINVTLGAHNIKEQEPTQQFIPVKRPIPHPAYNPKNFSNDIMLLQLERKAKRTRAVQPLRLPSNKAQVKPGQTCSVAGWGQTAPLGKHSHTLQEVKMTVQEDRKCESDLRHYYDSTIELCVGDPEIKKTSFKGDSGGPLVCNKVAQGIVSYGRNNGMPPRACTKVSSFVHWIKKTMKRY
MEASUREMENT_DESCRIPTION: human Granzyme B biochemical assay
TEST_PARAMETERS: Granzyme B (human lymphocytes) 5 nM, substrate Ac-IETD-AFC 200 μM, Cpd incubation with enzyme 30 mins, 22° C., read time 60 mins; read-out: IC50
pIC50: −log10 of the molar value.

SMILES_REPRESENTATION	REPORTED_VALUE
CC[C@H](C)[C@H](NC(=O)COCCF)C(=O)N[C@H]1CCc2cccc3c2N(C1=O)[C@H](C(=O)NCc1cocn1)C3	< 5.30
COC(=O)CC[C@H](NC(=O)[C@@H]1Cc2cccc3c2N1C(=O)[C@@H](NC(=O)[C@@H](NC(C)=O)C(C)C)CC3)C(=O)OC	< 5.30

Consider the record given below.
Item `C[C@H](NC(=O)Cc1csc2ccccc12)C(=O)N[C@H]1CCc2cccc3c2N(C1=O)[C@H](C(=O)NCc1c[nH]nn1)C3` has what recorded pIC50? 5.30 to 6.00
